Where do these numbers come from? They come from patent US11214803B2.

Exercise: for every item that follows, state its recorded % UTC (Yap1 mRNA).
# Test system: Yap1 mRNA
# procedure_details: Dose-dependent inhibition of human Yap1 in SNU-449 cells (Example 9, RTS36584)
# Assay type: cell-based
# condition_context: 2000.00 nM, free uptake, approximately 48 hours
Strand notation (5' to 3'): a small letter for the sugar, then the base; units joined by * are phosphorothioate-linked, units joined directly phosphodiester-linked; [ ] holds rarer units or linkages, { } end groups; capitals alone tell only the bases. e = 2'-O-(2-methoxyethyl) (MOE); k = constrained ethyl (cEt); [5mC] = 5-methylcytosine; d = 2'-deoxy (DNA)
Numeric only. Scale: % UTC

Prompt: Fill in reported % UTC (Yap1 mRNA) for this entry: 1198484 (kG*k[5mC]*dA*d[5mC]*dT*dT*dT*dT*dA*d[5mC]*dA*eT*kT*eA*kG*eG) [compound 1198484]
Completion: 12

Prompt: Fill in reported % UTC (Yap1 mRNA) for this entry: 1198287 (kA*kA*kA*dT*dT*dG*dT*d[5mC]*dT*d[5mC]*dA*dT*kG*e[5mC]*k[5mC]*eT; antisense) [compound 1198287]
Completion: 16

Prompt: Fill in reported % UTC (Yap1 mRNA) for this entry: 1198911 (kG*kA*dG*dG*dT*dA*dT*dA*dA*d[5mC]*dT*kG*dG*kG*d[5mC]*kA; antisense) [compound 1198911]
Completion: 7

Prompt: Fill in reported % UTC (Yap1 mRNA) for this entry: 1198286 (kA*kA*kT*dT*dG*dT*d[5mC]*dT*d[5mC]*dA*dT*dG*k[5mC]*e[5mC]*kT*eT; antisense) [compound 1198286]
Completion: 8

Prompt: Fill in reported % UTC (Yap1 mRNA) for this entry: 1198787 (kA*eG*kT*dG*dT*dA*dT*dG*dT*d[5mC]*dA*dG*eA*eA*kG*kA; antisense) [compound 1198787]
Completion: 1

Prompt: Fill in reported % UTC (Yap1 mRNA) for this entry: 1198422 (k[5mC]*dT*dT*dA*dT*dA*dT*dG*dG*dT*dT*kT*eT*kG*eT*kG) [compound 1198422]
Completion: 19

Prompt: Fill in reported % UTC (Yap1 mRNA) for this entry: 1198213 (kA*kT*dA*dT*dT*dA*dG*dA*dG*dT*dA*eT*eG*eT*kG*kG) [compound 1198213]
Completion: 3

----------
Exercise: for every item that follows, state its recorded pIC50.
# Tested on: Yap1 mRNA
# procedure_details: Dose-dependent inhibition of human Yap1 in A-431 cells (Example 7, 10,000 cells per well, RTS36584)
# Assay type: cell-based
# condition_context: A-431 cells, free uptake, approximately 48 hours, linear regression on log/linear plot
Strand notation (5' to 3'): a small letter for the sugar, then the base; units joined by * are phosphorothioate-linked, units joined directly phosphodiester-linked; [ ] holds rarer units or linkages, { } end groups; capitals alone tell only the bases. k = constrained ethyl (cEt); [5mC] = 5-methylcytosine; d = 2'-deoxy (DNA)
Note on pIC50: it is the negative log10 of concentration, concentration in mol/L.

Prompt: Fill in reported pIC50 for this entry: 958565 (kT*kT*kG*dA*dG*d[5mC]*dA*d[5mC]*dT*dG*dA*dA*dA*kG*kT*kA; antisense) [compound 958565]
Completion: 7.00

Prompt: Fill in reported pIC50 for this entry: 958545 (kA*k[5mC]*kT*d[5mC]*dT*dA*dG*dT*dT*dA*d[5mC]*dA*dT*k[5mC]*kA*kT; antisense) [compound 958545]
Completion: 7.00

Prompt: Fill in reported pIC50 for this entry: 958735 (kA*kG*k[5mC]*dA*dA*dT*d[5mC]*dT*dT*dG*dT*dG*dG*kA*kT*k[5mC]; antisense) [compound 958735]
Completion: 6.70

Prompt: Fill in reported pIC50 for this entry: 958600 (kG*kT*kA*dG*dA*dT*d[5mC]*dT*dA*dA*dG*dA*dA*kG*k[5mC]*k[5mC]; antisense) [compound 958600]
Completion: 7.30

Prompt: Fill in reported pIC50 for this entry: 958544 (kG*k[5mC]*kT*dA*dA*dA*dT*dT*d[5mC]*dA*dA*d[5mC]*dT*kA*k[5mC]*k[5mC]; antisense) [compound 958544]
Completion: 7.00

Prompt: Fill in reported pIC50 for this entry: 958535 (kG*kG*kG*dT*d[5mC]*dA*dA*dT*dT*dT*dT*d[5mC]*dA*kG*k[5mC]*kA; antisense) [compound 958535]
Completion: 6.70
